assay: xn = mol fraction of the nth substance listed, in the solute-free solvent; conditions: 303.15 K; x2 = 0.4
measured_property: solubility (g/100 g solution)
Simply state the number, no unit and no words.

The examples below pair each entry with its known result.
{"compound": "O=C(O)C1CSCN1 (stereo not given) + O + CC#N", "meas_value": 0.129}
{"compound": "CCCCOc1ccc(C(=O)CCN2CCCCC2)cc1.Cl + CCO + O", "meas_value": 49}
{"compound": "CCCCOc1ccc(C(=O)CCN2CCCCC2)cc1.Cl + CCO + CCCCCC", "meas_value": 17.9}
{"compound": "CC(=O)OC(c1ccccc1)C(Cl)(Cl)Cl (stereo not given) + CC(=O)O + O", "meas_value": 0.65}
{"compound": "COC1=CC(=O)CC(C)C12Oc1c(Cl)c(OC)cc(OC)c1C2=O (stereo not given) + CC(=O)CC(C)C + CC(C)O", "meas_value": 0.812}

Note to self: solubility (g/100 g solution) recorded for O=C(O)c1ccc(C(=O)O)o1 + C1COCCO1 + O was 4.76

Note to self: solubility (g/100 g solution) recorded for COC1=CC(=O)CC(C)C12Oc1c(Cl)c(OC)cc(OC)c1C2=O (stereo not given) + CC(C)=O + CC(C)O was 1.44

Note to self: solubility (g/100 g solution) recorded for O=C(O)c1ccc(C(=O)O)o1 + C1CCOC1 + O was 6.87

Note to self: solubility (g/100 g solution) recorded for CCCCOc1ccc(C(=O)CCN2CCCCC2)cc1.Cl + CO + C1CCOC1 was 27

Note to self: solubility (g/100 g solution) recorded for O=C1CCc2ccc(OCCCCN3CCN(c4cccc(Cl)c4Cl)CC3)cc2N1 + CCC(C)=O + CCOC(C)=O was 2.06
